Quick reference for growth inhibition among some compounds
Experiment: inhibition of 3D7 malaria parasite growth – strain 3D7 (AID 2306);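 note: 0% = DMSO wells and 100% = chloroquine plus artemisinin control wells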
Details: P. falciparum 3D7 erythrocytic growth, LDH absorbance, 72 h; at 2 µM; stronger effect = higher value
Respond with the bare value in %.

Worked cases, growth inhibition given:
{"columns": ["compound", "endpointResult"],
 "data": [
  ["CCCc1ccc(S(=O)(=O)NC2CCN(c3ccnc(Nc4ccc(F)cc4)n3)C2)cc1 (stereo not given)", 95],
  ["CC(=O)c1ccc(N2C(=O)C3C(Cc4ccc(OC(C)(C)C)cc4)NC4(C(=O)N(Cc5ccc(C(C)(C)C)cc5)c5ccccc54)C3C2=O)cc1 (stereo not given)", 86],
  ["COc1cc(CNCCCNc2nc3ncccc3[nH]2)c2[nH]cc(Br)c2c1", 92],
  ["CC(C)NCc1cccc(-c2ccc(NS(=O)(=O)c3cccc4cccnc34)cc2)c1", 90]
]}

Challenge: // query growth inhibition value for entry COc1c(C2CCN(CCN3CCC(NC(=O)c4ccc(-c5ccc(C(F)(F)F)cc5)cc4)CC3)CC2)ccc2c1CCCC2
Response given: 82

###

Overview of reported inhibition across a group of compounds:
Biological target: L-lactate dehydrogenase (Plasmodium falciparum (isolate CDC / Honduras)) (UniProt Q27743)
Sequence (Q27743 whole entry, looked up): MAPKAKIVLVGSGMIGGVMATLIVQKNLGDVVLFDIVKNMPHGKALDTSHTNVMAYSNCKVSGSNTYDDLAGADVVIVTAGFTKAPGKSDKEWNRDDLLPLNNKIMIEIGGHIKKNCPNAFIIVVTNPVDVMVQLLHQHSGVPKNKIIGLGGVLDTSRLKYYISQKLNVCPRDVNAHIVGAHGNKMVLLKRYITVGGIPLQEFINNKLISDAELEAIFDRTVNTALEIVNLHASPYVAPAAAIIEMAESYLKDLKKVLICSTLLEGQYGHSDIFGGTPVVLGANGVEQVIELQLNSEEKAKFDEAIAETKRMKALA
Experiment: PfLDH activity inhibition – cell lysate, 3D7 strain, counter-screen for P. falciparum growth inhibition project (AID 2304);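 note: 0% = vehicle and 100% = reference inhibitor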
Conditions: P. falciparum 3D7 crude extract, LDH APAD/NBT absorbance; at 2 µM; stronger effect = higher value
Your answer is read as %, so omit the unit and give the number.

Challenge: Give recorded inhibition with L-lactate dehydrogenase (Plasmodium falciparum (isolate CDC / Honduras)) (UniProt Q27743) for the following compound: COc1ccc(CNc2nc(NCc3ccccc3)c3cc(OC)c(OC)cc3n2)cc1OC
Response given: -6

Challenge: What reported inhibition corresponds to CCOC(=O)c1ccc(NC(=O)NNC(=O)c2ccc(CCN3CCC(c4nc(COCC(F)(F)F)c(-c5ccc(F)cc5)o4)CC3)cc2)cc1 on L-lactate dehydrogenase (Plasmodium falciparum (isolate CDC / Honduras)) (UniProt Q27743)?
Response given: 0

Challenge: Request - read-out inhibition | tested on L-lactate dehydrogenase (Plasmodium falciparum (isolate CDC / Honduras)) (UniProt Q27743) | compound CCCCCN1CCCC1CNS(=O)(=O)c1ccc(C(=O)Nc2ccc(C(F)(F)F)cc2)cc1 (stereo not given)
Response given: -2

Challenge: # get_value(readout= inhibition, system= L-lactate dehydrogenase (Plasmodium falciparum (isolate CDC / Honduras)) (UniProt Q27743)) for c1cnc2ccc(NCc3ccc(-c4ccc(CNC5CCCC5)cc4)cc3)cc2c1
Response given: -2

Challenge: API: value(readout= inhibition, system= L-lactate dehydrogenase (Plasmodium falciparum (isolate CDC / Honduras)) (UniProt Q27743), query= CC(CN(C)C)C(=O)Nc1ccc(-c2cccc(-c3nc4ccc(C(F)(F)F)cc4[nH]3)c2)cc1 (stereo not given) )
Response given: -1

###

Entries annotated with measured growth inhibition
Assay: inhibition of 3D7 malaria parasite growth – strain 3D7 (AID 2306);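 note: 0% = DMSO wells and 100% = chloroquine plus artemisinin control wells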
Conditions: P. falciparum 3D7 erythrocytic growth, LDH absorbance, 72 h; at 2 µM; stronger effect = higher value
Give the number; % is assumed, so skip it.

Challenge: Fill in the blank: the reported growth inhibition of COc1ccc(NC(=O)N2CCCN(CCCCCNC(=O)/C=C/c3ccc(C(F)(F)F)cc3)CC2)cc1Cl is ____.
Response given: 93

Challenge: Form field: reported growth inhibition of O=S(=O)(NC1CCN(c2ccnc3cc(Cl)ccc23)C1)c1ccc(F)cc1 (centres undefined)
Response given: 98

Challenge: Name the recorded growth inhibition for FC(F)(F)c1ccc2nc(-c3ccc(-c4ccc(CNCC5CCCO5)cc4)s3)[nH]c2c1 (centres undefined) .
Response given: 101

Challenge: Using the record for O=C(C(=O)c1ccc(Nc2ccnc3cc(-c4ccccn4)ccc23)cc1)c1ccccc1 , report its growth inhibition.
Response given: 93

Challenge: Given the compound O=C(Nc1cccnc1)c1cc(-c2cccnc2)nc2ccc(Br)cc12 , what is its reported growth inhibition?
Response given: 99

###

Measured growth inhibition by item
Test: antimalarial activity against Dd2 strain (AID 2302);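 note: 0% = DMSO untreated growth and 100% = chloroquine plus artemisinin killed control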
Conditions: P. falciparum Dd2 in RBCs, LDH growth readout, 72 h; at 2 µM; stronger effect = higher value
// note: answer is a bare numeric in %

These solved cases illustrate the format of a correct answer.
{"columns": ["compound", "uom", "growth inhibition"],
 "data": [
  ["CN1CCC(COc2ccc(CN3CCC(NC(=O)c4cccc(Cl)c4)CC3)cc2)CC1", "%", 13],
  ["Cc1c(Cc2ccccc2Cl)cnc2nc(N)nc(N)c12", "%", 96]
]}

Challenge: For the compound Nc1ncnc2c1ncn2C(CO)Cc1ccc(O)cc1 (stereo not given) , what growth inhibition is on record?
Response given: 0

Challenge: What growth inhibition value was documented for this compound, COc1ccc(CN2CCC(CN3CC4(OC3=O)c3ccccc3-c3ccccc34)C2)c(O)c1 (stereo not given) ?
Response given: 79

Challenge: Give the measured growth inhibition of COc1ccc2ncc(F)c(NC(=O)C3CCC(NCc4cc5cc(F)cc(F)c5[nH]4)CC3)c2n1 (stereo not given) .
Response given: 15

###

Assay: antimalarial activity against Dd2 strain (AID 2302);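 note: 0% = DMSO untreated growth and 100% = chloroquine plus artemisinin killed control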
Settings: P. falciparum Dd2 in RBCs, LDH growth readout, 72 h; at 2 µM
Active and inactive are the calls of the source.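 The calls were made as follows: active = growth inhibition above 50% at the single 2 µM test dose, taken to imply half-maximal potency below 2 µM; inactive = the rest.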
Classes to choose from: active, inactive

Challenge: Hi team, can someone confirm the assay call for COCCCNC(=S)NN=C(C)c1ccccn1 ?
Response given: active

Challenge: Recorded test call requested for COc1ccc(-c2ccc(NC(=O)c3cccc(C#N)c3)cc2)cc1CN1CCC(O)CC1
Response given: active

Challenge: What is the recorded call for this compound in the test? Cc1ccccc1C1CCN(C2CCC(NC(=O)/C=C/c3ccc4c(c3)OC(F)(F)O4)CC2)CC1 (centres undefined)
Response given: inactive

Challenge: Look up the recorded call for COc1ccc(C(=O)CCc2ccc(O)cc2)cc1 in this test.
Response given: active

Challenge: Which result was noted for this compound in the test: NC(N)=Nc1nc(-c2cccc(NCCCCCCCCON3C(N)=NC(N)=NC34CCCCC4)c2)cs1
Response given: inactive

Challenge: Please let me know the test result on file for CN1CCN(CC(=O)Nc2cccc(-c3cccc(-c4nc5ccccc5[nH]4)c3)c2)CC1 .
Response given: inactive

Challenge: Identify the outcome logged in this assay for the compound shown: CC(C)N1CCC(N(Cc2ccc(-c3ccc(C(F)(F)F)cc3)cc2)C(=O)Cn2c(SCc3cccc(F)c3F)cc(=O)c3ccccc32)CC1
Response given: active

Challenge: Assay result, entry O=C(Nc1ccc(-c2cccc(-c3nc4ccc(C(F)(F)F)cc4[nH]3)c2)cc1)c1ccc(=O)[nH]n1 — outcome?
Response given: inactive

###

Target: L-lactate dehydrogenase (Plasmodium falciparum (isolate CDC / Honduras))
Assay: PfLDH activity inhibition – cell lysate, 3D7 strain, counter-screen for P. falciparum growth inhibition project (AID 2304);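 note: 0% = vehicle and 100% = reference inhibitor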
Conditions: P. falciparum 3D7 crude extract, LDH APAD/NBT absorbance; at 2 µM; stronger effect = higher value
measurementType: inhibition (%)
Answer with a number only, understood to be in %.

Some molecules with known inhibition results, for comparison:
{"columns": ["molecule", "inhibition [%]"],
 "data": [
  ["COc1cccc(C=NNc2cc(C)nc3c(OC)cccc23)c1", -6],
  ["CCCCCCNCc1c(O)ccc2c(CNCCCCCC)c(O)ccc12", -1],
  ["O=C(N[C@@H](CC1CCCCC1)C(=O)NCCN1CCCC1)c1ccc(O)c(-c2cccc(C(F)(F)F)c2)c1", -4],
  ["CCOC(=O)C1=C(C)NC2=C(C(=O)CCC2)C1c1cn(Cc2ccc(Cl)cc2Cl)nc1-c1ccccc1 (centres undefined)", -2],
  ["O=C(NCc1ccc(Cl)cc1)c1ccc(CN2CCCN(Cc3cccc(O)c3)CC2)cc1", -5],
  ["COc1cc2nc(N3CCC(CNC(=O)c4ccc(-c5ccc(C(=O)N(C)C)cc5OCCO)cc4)CC3)nc(N)c2cc1OC", -1]
]}

Challenge: Consider the molecule shown here: O=C(/C=C/c1ccc(Cl)c(Cl)c1)NCCCCCN1CCN(C(=O)Nc2ccc(Cl)c(C(F)(F)F)c2)CC1 What is its recorded inhibition?
Response given: 3

Challenge: // lookup inhibition for Cc1nc2nc(N)nc(N)c2c(C)c1Cc1cccc(F)c1
Response given: -5

Challenge: So what's the measured inhibition for this one? COc1cc2nc(N3CCC(CNC(=O)c4cc5ccccc5s4)CC3)nc(N)c2cc1OC
Response given: 2

###

Assay: inhibition of 3D7 malaria parasite growth – strain 3D7 (AID 2306);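 note: 0% = DMSO wells and 100% = chloroquine plus artemisinin control wells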
Conditions: P. falciparum 3D7 erythrocytic growth, LDH absorbance, 72 h; at 2 µM; stronger effect = higher value
measurementType: growth inhibition (%)
Write it as a number; the unit % goes unstated.

Would you please look over these solved cases?
{"columns": ["molecule", "growth inhibition (%)"],
 "data": [
  ["COc1ccc2ncc(F)c(CCN3C[C@H](CNCc4ccc5c(c4)OCCO5)[C@H](O)C3)c2n1", 94],
  ["COc1ccc2nccc([C@@H](O)CN3CCC(NC(=O)C(c4cc5ccccc5o4)N4CCN(c5ccccc5OC)CC4)CC3)c2c1 (stereo not given in full)", 99],
  ["CN1CCN(c2ccc(Nc3ccnc4ccc(-c5ccccc5)cc34)cc2)CC1", 101],
  ["O=C(NC(=S)NCc1ccncc1)c1ccccc1", 94],
  ["COc1cccc(CNc2noc(-c3c(-c4ccccc4)noc3C)n2)c1OC", 97]
]}

Challenge: Item Cc1cccc2nc(C(=O)Nc3nc(CN4CCC(C)CC4)cs3)cn12 has what recorded growth inhibition?
Response given: 94

Challenge: growth inhibition for Fc1ccccc1C=NNc1ccnc2ccc(C(F)(F)F)cc12 ?
Response given: 100

Challenge: Which measured growth inhibition value corresponds to Cc1nc(-c2cccc(C(F)(F)F)c2)n2nc(Nc3ccc(OCCN4CCCC4)cc3)ncc12 ?
Response given: 99

Challenge: Given Oc1ccc(Cl)c2c1C(c1ccccc1)=NCC2 , state its recorded growth inhibition.
Response given: 95

Challenge: Would you kindly share the measured growth inhibition for Cc1ccc(NC(=O)c2cc(Br)cc(N3CCC(N(C)C)CC3)c2)cc1F ?
Response given: 100

Data origin, for the record: PubChem BioAssay
